System: Pseudomonas aeruginosa
Experiment: Antibacterial activity against Pseudomonas aeruginosa assessed as inhibition of bacterial growth incubated for 24 hrs by CLSI protocol based two fold serial dilution method
Type: functional
The reader will find reported MIC values listed item by item below.
MEASUREMENT NAME: MIC

>>> result_value("C=CCOc1cccc2c1c1ccccc1n2Cc1nnc(S)o1")
"128 mg/L"
>>> result_value("Sc1nnc(Cn2c3ccccc3c3c(OCC4CCCCC4)cccc32)o1")
"128 mg/L"
>>> result_value("Sc1nnc(Cn2c3ccccc3c3c(OCCN4CCOCC4)cccc32)o1")
"256 mg/L"
>>> result_value("CCCCCOc1cccc2c1c1ccccc1n2Cc1nnc(S)o1")
"256 mg/L"
>>> result_value("CCn1c2ccccc2c2nnc(SCc3nnc(S)o3)nc21")
"256 mg/L"
>>> result_value("CCSc1nnc2c3ccccc3n(Cc3nnc(S)o3)c2n1")
"256 mg/L"
>>> result_value("CCN(CC)CCOc1cccc2c1c1ccccc1n2Cc1nnc(S)o1")
"256 mg/L"
>>> result_value("CCOc1cccc2c1c1ccccc1n2Cc1nnc(S)o1")
"256 mg/L"
>>> result_value("Sc1nnc(Cn2c3ccccc3c3c(OCC4CCCC4)cccc32)o1")
"256 mg/L"
>>> result_value("Fc1ccc(COc2cccc3c2c2ccccc2n3Cc2nnc(S)o2)cc1")
"256 mg/L"
>>> result_value("Sc1nnc(COc2cccc3c2c2ccccc2n3CC2CC2)o1")
"256 mg/L"
>>> result_value("Sc1nnc(COc2cccc3[nH]c4ccccc4c23)o1")
"256 mg/L"
>>> result_value("CCCCOc1cccc2c1c1ccccc1n2Cc1nnc(S)o1")
"256 mg/L"
>>> result_value("Sc1nnc(Cn2c3ccccc3c3c(OCC4CC4)cccc32)o1")
"256 mg/L"
>>> result_value("Sc1nnc(COc2cccc3c2c2ccccc2n3CC2CCCCC2)o1")
"256 mg/L"
>>> result_value("CC(C)=CCn1c2ccccc2c2c(OCc3nnn[nH]3)cccc21")
"256 mg/L"
>>> result_value("CCn1cc(C(=O)O)c(=O)c2cc(F)c(N3CCNCC3)cc21")
"8 mg/L"
>>> result_value("CCn1c2ccccc2c2c(OCc3nnc(S)o3)cccc21")
"256 mg/L"

Where do the numbers come from? From ChEMBL document CHEMBL5154842.
